- PROCEDURE_DETAILS: yeast display, Sf9 membrane polyspecificity reagent, FACS + sequencing; frameworks hold sequencing errors
ATTRIBUTE_MEASURED: polyreactivity (PSR sort gate)

HVQLQESGGGLVQAGGSLRLSCAASGSIYQATYMGWYRQAPGKEREFVASITYGSITNYADSVKGRFTIGRDNANDTLYLQMNSLKPEDTAVYYCSVDRHYYWGQGTQVTVST    low polyreactivity
QVQLVESGGGLVQAGGSLRLSCAASGRIFKSYAMGGYRHAPGKERELVAAISSGDDTYYADSVKGRFTISRDNAKNTVYLQMNSLKQEDTAVYYCAADYWGWIYLYGDYLVDYWGQGTQVTVSS    low polyreactivity
QVQLVESGGGLVQAGGSLRISCAASGITFRWYAMGWYRQAPGKERELVAGINSSGGSTNYADSVKGRFTISRDNAKNTVYLQMNSLKPADTAVYYCNADLRSEYDYWGQGTQETVSS    low polyreactivity
QDQLVESGGGLVQAGGSLSLSCAASGSIFGKYTMGWYRQAPGKERELVAGITYRAGSTYYADSVKGRFTISRDNAKITVYLQMNSLKPEDTAVYYCAARFYFRWYYYGSYANYWGQGTQVTVSS    high polyreactivity

Lookup: Requested field: polyreactivity (PSR sort gate). Item: `QVQLVESGGGLVQAGGSLRLSCAASGFTIRWYTMGWYRQAPGKERELVAAITSGGGTYYADSVKGRFTISRDNAKNTVYLQMNILKPEDTAVYYCAARTLSVARRRPYYYWGQGTQVTGSS`
Found: high polyreactivity

====

- PROCEDURE_DETAILS: yeast display, Sf9 membrane polyspecificity reagent, FACS + sequencing; frameworks hold sequencing errors
ATTRIBUTE_MEASURED: polyreactivity (PSR sort gate)

Example results:
QVQLVESGGGLVQAGGSLRLSCAASGSTLYVYTMGWYRQAPGKERELVAGITRGGSTYYADSVKGRFTISRDNAKNTVYLQMNSLKPEDTAVYYCAARSSYREYYWGQGTQVTVSS    high polyreactivity
EEELVESGGGLVQAGGSLRLSCSASGSTFLVYSMGWYRQAPGKERELVAVITNSTVRTYYADSVKGRFTISRDNAKNTVYLQMDRLKPEDTAVYYCNADKEFAVLGQGMDYWGQGTQVTVSS    low polyreactivity
QVQHVESGGGLVQAGGSLRLSSAAYGFIFGYYTMGWYRQAPGKERELVAAITSGDSTNYADSVKGRFTISRDNAKNTVYLQMNSLKPEDTAVYYCNARGLFTWMDYWGQGTQVTVSS    low polyreactivity
QVQLVESGGGLVQAGGSLGLSCAASGLIFRKYAMGWYRQAPGKERELVATINRSGGSTYYADSVKGRFTISRDNAKNTVYLQMNSLKPEATAVYYCATDRLSYGYKPGYTFYYWEQGTQVTVSS    high polyreactivity
QVQLVESGGGLVQAGGSLSLSCAASGSTFYANAMGWYRQAPGKEREFVAAISYNGGSTYYADSVKGRFTISRDNAKNTVYFQMNSLKPEDTAVYYCNVDYDYPYYEVDYWGQGTQVTVSS    low polyreactivity

Below is a list of sequences. For each, state its recorded polyreactivity (PSR sort gate).
1. QVQLVESGGGLVQAGGSLRLSCAASGRIFGYYAMGWYRQAPGKERELVAAIRRSGGSTYADSVKGRFTISRDNAKNTVYLQMNSLKPEDTAVYYCAAGHYWFTKGYHTLYDMDYWGQGTQVTVSS
2. QVQLVESGGGLVQAGGSLRLSCAASGFTFLQYAMGWYRQAPGKERELVATISSGGSTYYADSVKGRFTISRDNAKNTVYLQMNSLTPEDTAVYYCNAEEHFHTYVLHFRPYYVRHDYWGKGTQVTVSS
3. QVQLVESGGGLVQAGGSLRLSCAASGRTFSWYTMGWYRQAPGNERELVAVINYSGGSTYYADSVKGRFTISRDNAKNTVYLQMTSLKPEDTAVYYCAARNVVTGYRYDYWGQGTQVTVSS
4. QVQLVESGGGLVQAGGSLRLSCAASGFIFKKYAMGWYRQAPGKERELVAAISGSSTRTYYADSVKGRFTISRDNAKNTVYLQMNSLKPEDTAVYYCAAYYGVGFDYWGQGTQVTVSS
5. QVQLVESGGGLVQAGGSLRLSCAPSGFIFVKYVMGWYRQAPGKERELVATITGSTGGTYYADSVKGRFTISRDNAKNTVYLQMNSLKPEDTAVYYCNKDYYYNPGNVASGYDYWGQGTQVTVSS
6. QVQLVESGGGLVQAGGSLRLSCAASGRIFWYYAMGWYRQAPGKERELVARISSSGGSTYYADSVKGRFTISRDNAKNTVYLQMNSLKTDYTAVYFWAKERYSGSSRYPMDYWGQGTQVTVSS
7. QVQLVESGGCLVQAGGSLRLSCAASGYTIRYYSMGWYRQAPGKERELVAAISYSGGSTYYADSVKGRFTISRDNAKNTVYLQMNIMKPEDTAVYYCDAGFSLYLGFEYWGQGTQVTVSS
8. QVQLVESGGGLVQAGGSLRLSCAASGRTFAAYDMGWYRQAPGKERELVAAITSGGSTNYADSVKGRFTISRDNAKNTVYLQMNSLKPEDTAVYYCNARFRKWPQARYGVRYYYWGQGTQVTVSS

Found:
1. high polyreactivity
2. low polyreactivity
3. high polyreactivity
4. high polyreactivity
5. low polyreactivity
6. high polyreactivity
7. high polyreactivity
8. high polyreactivity

Lookup: What does the record list as polyreactivity (PSR sort gate) for `QVQLVESGGGLVQAGASLRLSCAASGFTFGINAMGWYRQAPGKERELVATISTRGGTTHYADSVKGRFTISRDNAKNTVYLQMNRLKPEDTAVYYCAVERGTFRSGFAYEYYYWGQGTQVTVSS` ?
Found: low polyreactivity
